tested on: human SMAD7 mRNA; assay: Antisense inhibition of human SMAD7 mRNA expression in Hep3B cells by 3-10-3 cEt gapmers, 10,000 nM, electroporation (Example 2); type: cell-based; settings: Hep3B cells, electroporation with 10,000 nM antisense oligonucleotide, approximately 24 hours, SMAD7 mRNA by RT-PCR (RTS5062), relative to untreated control cells
Strand notation (5' to 3'): a small letter for the sugar, then the base; units joined by * are phosphorothioate-linked, units joined directly phosphodiester-linked; [ ] holds rarer units or linkages, { } end groups; capitals alone tell only the bases. k = constrained ethyl (cEt); [5mC] = 5-methylcytosine; d = 2'-deoxy (DNA)
Recorded % Inhibition split into classes Low: < 20%; Mid: ≥ 20% and < 30%; High: ≥ 30%

INSERT INTO results (substance, class_assignment) VALUES
  ('800003 (kA*kG*kA*dA*d[5mC]*dA*d[5mC]*dG*dG*dG*d[5mC]*dA*d[5mC]*kG*k[5mC]*kG; antisense) [compound 800003]', 'Mid'),
  ('798831 (kA*kT*kA*dG*dA*dA*dG*dA*dT*dA*dT*d[5mC]*d[5mC]*kA*kG*kA; antisense) [compound 798831]', 'Low'),
  ('798884 (k[5mC]*kG*kG*dT*dA*dA*dA*dG*d[5mC]*d[5mC]*d[5mC]*dG*dT*k[5mC]*k[5mC]*kA; antisense) [compound 798884]', 'Low'),
  ('799475 (antisense kG*kT*kG*dA*dG*d[5mC]*dT*dG*dG*dG*d[5mC]*dT*dA*kT*kT*k[5mC]) [compound 799475]', 'High'),
  ('798784 (kG*kA*kG*dT*d[5mC]*dG*dG*d[5mC]*dT*dA*dA*dG*dG*kT*kG*kA; antisense) [compound 798784]', 'High'),
  ('772642 (kT*kA*k[5mC]*d[5mC]*dG*dG*d[5mC]*dT*dG*dT*dT*dG*dA*kA*kG*kA; antisense) [compound 772642]', 'Low'),
  ('800082 (antisense kG*k[5mC]*kA*dG*dA*d[5mC]*d[5mC]*dG*dG*dT*dA*dT*dT*kA*kA*k[5mC]) [compound 800082]', 'Low'),
  ('830082 (kG*kG*kT*dG*dT*dA*dT*dA*d[5mC]*d[5mC]*d[5mC]*dT*dG*k[5mC]*kA*k[5mC]; antisense) [compound 830082]', 'High'),
  ('830135 (antisense kA*kA*kG*dT*dA*d[5mC]*dA*dA*dT*d[5mC]*dT*d[5mC]*d[5mC]*kT*kG*kG) [compound 830135]', 'High'),
  ('830022 (antisense kG*kG*k[5mC]*dT*dG*d[5mC]*dA*dG*dA*dG*dT*dA*dT*kG*kG*kG) [compound 830022]', 'High'),
  ('830072 (kA*kT*k[5mC]*dA*dA*dA*dG*dG*dT*dA*dA*dG*d[5mC]*k[5mC]*kA*kG; antisense) [compound 830072]', 'Mid'),
  ('799507 (antisense kA*k[5mC]*kT*d[5mC]*dA*dT*dT*dA*dG*dT*d[5mC]*d[5mC]*d[5mC]*kA*kT*kG) [compound 799507]', 'High'),
  ('799407 (antisense kT*kG*k[5mC]*dA*dG*dG*dA*dA*dA*d[5mC]*d[5mC]*d[5mC]*dA*kA*kG*kG) [compound 799407]', 'High');
